This collection of values is drawn from paper PMC7305236.

molecular target: UniProt:P51677; assay: Figure S2a opioid peptide screen on chemokine receptors; set-up: dose or concentration left out as unconfirmed; conditions: read-out: CCR3 activity, ctrl+ = 100, Figure S2a; replicate 2
Sequence (P51677 whole entry): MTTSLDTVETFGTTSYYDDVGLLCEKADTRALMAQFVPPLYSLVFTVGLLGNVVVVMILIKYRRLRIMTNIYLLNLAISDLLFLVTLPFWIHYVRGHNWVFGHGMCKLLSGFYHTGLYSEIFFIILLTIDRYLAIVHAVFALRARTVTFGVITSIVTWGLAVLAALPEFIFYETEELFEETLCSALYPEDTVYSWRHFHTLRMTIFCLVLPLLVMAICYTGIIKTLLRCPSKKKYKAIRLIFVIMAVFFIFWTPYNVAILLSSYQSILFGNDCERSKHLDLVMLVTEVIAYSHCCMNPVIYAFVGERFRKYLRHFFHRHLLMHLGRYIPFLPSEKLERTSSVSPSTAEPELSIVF
Starred links: 1 amine or outer side, 2 acyl side, 3 side chain; linkers in the order of their positions; H or OH if unused. Non-standard residues stand in square brackets, D forms with d. Residues, ends and D or L forms follow the SMILES beside them. X1 = N[C@@H](Cc1ccccc1)CN(CC(=O)[*:2])[*:1]
Would you mind labelling by activation? At or over -10% is criterion met, under is criterion not met.

Completed entries (count: 5):
compound | category
C[C@H](NC(=O)CNC(=O)[C@@H](NC(=O)[C@H](Cc1ccccc1)NC(=O)CNC(=O)CNC[C@@H](N)Cc1ccccc1)[C@@H](C)O)C(=O)N[C@@H](CCCNC(=N)N)C(=O)N[C@@H](CCCCN)C(=O)N[C@@H](CO)C(=O)N[C@@H](C)C(=O)N[C@@H](CCCNC(=N)N)C(=O)N[C@@H](CCCCN)C(N)=O [FG Nociceptin 1-13] (H-[X1]GFTGARKSARK-NH2) | criterion met
CC[C@H](C)[C@H](NC(=O)[C@H](CCCNC(=N)N)NC(=O)[C@H](CCCNC(=N)N)NC(=O)[C@H](CC(C)C)NC(=O)[C@H](Cc1ccccc1)NC(=O)CNC(=O)CN)C(=O)N[C@@H](CCCNC(=N)N)C(=O)N1CCC[C@H]1C(=O)N[C@@H](CCCCN)C(=O)N[C@@H](CC(C)C)C(=O)N[C@@H](CCCCN)C(=O)N[C@@H](Cc1c[nH]c2ccccc12)C(=O)N[C@@H](CC(=O)O)C(=O)N[C@@H](CC(N)=O)C(=O)N[C@@H](CCC(N)=O)C(=O)O | criterion not met
CC[C@H](C)[C@H](NC(=O)[C@H](CCCNC(=N)N)NC(=O)[C@H](CCCNC(=N)N)NC(=O)[C@H](CC(C)C)NC(=O)[C@H](Cc1ccccc1)NC(=O)CNC(=O)CNC(=O)[C@@H](N)Cc1ccc(O)cc1)C(=O)N[C@@H](CCCNC(=N)N)C(=O)N1CCC[C@H]1C(=O)N[C@@H](CCCCN)C(=O)N[C@@H](CC(C)C)C(=O)N[C@@H](CCCCN)C(=O)O | criterion not met
CC(C)C[C@H](NC(=O)[C@H](Cc1ccccc1)NC(=O)CNC(=O)CNC(=O)[C@@H](N)Cc1ccc(O)cc1)C(=O)N[C@@H](CCCN=C(N)N)C(=O)N[C@@H](CCCN=C(N)N)C(=O)N[C@@H](CCC(N)=O)C(=O)N[C@@H](Cc1ccccc1)C(=O)N[C@@H](CCCCN)C(=O)N[C@H](C(=O)N[C@H](C(=O)N[C@H](C(=O)O)[C@@H](C)O)C(C)C)C(C)C | criterion met
CSCC[C@H](NC(=O)[C@H](Cc1ccccc1)NC(=O)CNC(=O)CNC(=O)[C@@H](N)Cc1ccc(O)cc1)C(=O)N[C@@H](CCCNC(=N)N)C(=O)N[C@@H](CCCNC(=N)N)C(=O)N[C@H](C(N)=O)C(C)C | criterion not met

For the next question, use this compound.
Hi team, for CC[C@H](C)[C@H](NC(=O)[C@H](CCCNC(=N)N)NC(=O)[C@H](CCCNC(=N)N)NC(=O)[C@H](CC(C)C)NC(=O)[C@H](Cc1ccccc1)NC(=O)CNC(=O)CNC(=O)[C@@H](N)Cc1ccc(O)cc1)C(=O)N[C@@H](CCCNC(=N)N)C(=O)N1CCC[C@H]1C(=O)N[C@@H](CCCCN)C(=O)N[C@@H](CC(C)C)C(=O)N[C@@H](CCCCN)C(=O)N[C@@H](Cc1c[nH]c2ccccc12)C(=O)N[C@@H](CC(=O)O)C(=O)N[C@@H](CC(N)=O)C(=O)N[C@@H](CCC(N)=O)C(=O)O , is the recorded activation at or above -10%? criterion not met
